Exercise: state measured Mean relative activity for each of the molecules provided.
- Test system: K562 CRISPRi cells
- assay protocol: Constant region variant library pooled growth screen, K562
- Assay type: cell-based, human
- condition details: sgRNA constant region variant; activity relative to unmodified constant region cr995; mean CRISPRi activity
Numbers only.

Use these answered entries as a reference point.
cr445 (nucleic acid, listed as DNA, chemistry not fully specified) guide: GTTTAAGAGCTAAGCTGGAAACAGCATAGCAAGTTTAAATAAGGCTAGTCCGTTATCAACTTGAAAAAGTGGCATCCAGTTGCTGCT = 0.01078
cr103 (nucleic acid, listed as DNA, chemistry not fully specified) guide: GTTTAAGAGCTAAGCTGGAAACAGCATAGCATGTTTAAATAAGGCTAGTCCTTTATCAACTTGAAAAAGTGGCACCGAGGCGGTGCT = 0.01259

# input for lookup
Fill in the blank: the reported Mean relative activity of cr413 (nucleic acid, listed as DNA, chemistry not fully specified) guide: GTTTAAGAGCTAAGCTGGAAACAGCATAGCAACTTTAAATAAGGCTAGTCCGTTATCAACTTGAAAAAGTGGCAACGAGTCGTTGCT is ____.
0.01427
